System: purified human Factor XIa (Homo sapiens (Human)) | Read-out: Ki
readout-name: Ki

• COC(=O)Nc1cc(F)c2c(c1)NC(=O)C(C)CCCC(c1ccc(-c3c(F)ccc(Cl)c3F)c[n+]1[O-])c1cccc-2c1 (single isomer, unassigned) [Example 85-d] = 160 nM
• COC(=O)Nc1ccc2c(c1)NC(=O)CCCC[C@H](c1ccc(-c3cc(Cl)ccc3-n3cc(C#N)cn3)c[n+]1[O-])c1cccc-2c1 (single isomer, unassigned) [Example 41] = 0.19 nM
• COC(=O)Nc1ccc2c(c1)NC(=O)CCCC[C@H](c1ccc(-c3c(-n4cc(C(F)(F)F)cn4)ccc(Cl)c3F)c[n+]1[O-])c1nc-2c(C)[nH]1 (single isomer, unassigned) [Example 135] = 198 nM
• COC(=O)Nc1ccc2c(c1)NC(=O)C(C)CCCC(c1ccc(-c3c(F)ccc(Cl)c3F)c[n+]1[O-])c1ccc(F)c-2c1 (single isomer, unassigned) [Example 86-c] = 115 nM
• O=C1CCCC[C@H](c2ccc(-c3cc(Cl)ccc3-c3cnco3)c[n+]2[O-])c2nc(c[nH]2)-c2cc(F)ccc2N1 (single isomer, unassigned) [Example 118] = 5.69 nM

====

Target: purified Human plasma Kallikrein (Homo sapiens (Human))
Assay: Kallikrein Assay
Assay type: biochemical
Settings: purified Human plasma Kallikrein 0.5 nM; substrate Acetyl-K-P-R-AFC; 50 mM HEPES pH 7.4; Ki from IC50 by Cheng Prusoff
Experimental: The effectiveness of a compound of the present invention as an inhibitor of Kallikrein can be determined using a relevant purified serine protease, and an appropriate synthetic substrate. The rate of hydrolysis of the chromogenic or fluorogenic substrate by the relevant serine protease was measured both in the absence and presence of compounds of the present invention. […] A decrease in the rate of fluorescence change in the presence of inhibitor is indicative of enzyme inhibition. […]
Label met when Ki < 2 nM; otherwise not met.

- COC(=O)Nc1ccc2c(c1)NC(=O)CCCCC(c1ccc(-c3c(F)ccc(Cl)c3F)c[n+]1[O-])c1cccc-2c1 (single isomer, unassigned) [Example 13-a]: met
- COC(=O)Nc1ccc2c(c1)NC(=O)CCCC[C@H](c1ccc(-c3c(F)cccc3OC(F)F)c[n+]1[O-])c1cccc-2c1 (single isomer, unassigned) [Example 34]: not met
- COC(=O)Nc1ccc2c(c1)NC(=O)CC[C@@H](C)C[C@H](c1ccc(-c3c(F)ccc(Cl)c3F)c[n+]1[O-])c1nc-2c(C)[nH]1 (single isomer, unassigned) [Example 151-a]: met
- Nc1ccc2c(c1)NC(=O)CCCCC(c1ccc(-c3c(F)ccc(Cl)c3F)c[n+]1[O-])c1nc-2c[nH]1 (single isomer, unassigned) [Example 108-a]: met
- COC(=O)Nc1ccc2c(c1)NC(=O)CCCCC(c1ccc(-c3c(F)ccc(Cl)c3F)c[n+]1[O-])c1cc-2cc[n+]1[O-] (centres unmarked) [Example 83]: not met
- COC(=O)Nc1ccc2c(c1)NC(=O)C(C)CCCC(c1ccc(-c3c(F)ccc(Cl)c3F)c[n+]1[O-])c1nc-2c[nH]1 (single isomer, unassigned) [Example 114-a]: met
- Nc1ccc2c(c1)NC(=O)CCCCC(c1ccc(-c3c(F)ccc(Cl)c3F)c[n+]1[O-])c1cccc-2c1 (single isomer, unassigned) [Example 43-a]: not met
- O=C1CCCCC(c2ccc(-c3cc(Cl)ccc3-n3cnnn3)c[n+]2[O-])c2c[nH]c(n2)-c2cc(F)ccc2N1 (racemic) [Example 160]: not met
- COC(=O)Nc1ccc2c(c1)NC(=O)[C@@H](C)CCC[C@@H](c1ccc(-c3cc(F)ccc3OC(F)(F)F)c[n+]1[O-])c1nc-2c(C)[nH]1 (single isomer, unassigned) [Example 149-b]: not met
- COC(=O)Nc1ccc2c(c1)NC(=O)CCCC[C@H](c1ccc(-c3cc(Cl)ccc3-n3cc(C(F)(F)F)cn3)c[n+]1[O-])c1cccc-2c1 (single isomer, unassigned) [Example 40]: not met
- COC(=O)Nc1ccc2c(c1)NC(=O)[C@H](C)CCC[C@H](c1ccc(-c3c(F)cccc3F)c[n+]1[O-])c1nc-2c(C)[nH]1 (single isomer, unassigned) [Example 143-b]: met

====

Biological target: purified Human plasma Kallikrein (Homo sapiens (Human))
Assay: Kallikrein Assay
Assay type: biochemical
Conditions: purified Human plasma Kallikrein 0.5 nM; substrate Acetyl-K-P-R-AFC; 50 mM HEPES pH 7.4; Ki from IC50 by Cheng Prusoff
Procedure: The effectiveness of a compound of the present invention as an inhibitor of Kallikrein can be determined using a relevant purified serine protease, and an appropriate synthetic substrate. The rate of hydrolysis of the chromogenic or fluorogenic substrate by the relevant serine protease was measured both in the absence and presence of compounds of the present invention. […] A decrease in the rate of fluorescence change in the presence of inhibitor is indicative of enzyme inhibition. […]
pKi: −log10 of the molar value.
readout-name: pKi

- COC(=O)Nc1ccc2c(c1)NC(=O)C(C)CCCC(c1ccc(-c3c(F)ccc(Cl)c3F)c[n+]1[O-])c1cccc-2c1 (single isomer, unassigned) [Example 50-b]: 7.97
- COC(=O)Nc1ccc2c(c1)NC(=O)[C@@H](C)CCC[C@H](c1ccc(-c3cc(F)ccc3OC(F)(F)F)c[n+]1[O-])c1nc-2c(C)[nH]1 (single isomer, unassigned) [Example 149-c]: 8.11
- COC(=O)Nc1ccc2c(c1)NC(=O)CCCCC(c1ccc(-c3cc(Cl)ccc3-n3cnnn3)c[n+]1[O-])c1cccc-2c1 (single isomer, unassigned) [Example 6-a]: 9.54
- COC(=O)Nc1ccc2c(c1)NC(=O)CCCC[C@H](c1ccc(-c3c(F)ccc(Cl)c3F)c[n+]1[O-])c1cc-2ncc1F (single isomer, unassigned) [Example 72]: 8.53
- O=C1CCCCC(c2ccc(-c3cc(Cl)ccc3-n3cnnn3)c[n+]2[O-])c2ccnc(c2)-c2cc(F)ccc2N1 (centres unmarked) [Example 70]: 8.68

====

Ki by entry:
Target: purified Human plasma Kallikrein (Homo sapiens (Human), UniProt P03952)
Sequence (P03952 391-638): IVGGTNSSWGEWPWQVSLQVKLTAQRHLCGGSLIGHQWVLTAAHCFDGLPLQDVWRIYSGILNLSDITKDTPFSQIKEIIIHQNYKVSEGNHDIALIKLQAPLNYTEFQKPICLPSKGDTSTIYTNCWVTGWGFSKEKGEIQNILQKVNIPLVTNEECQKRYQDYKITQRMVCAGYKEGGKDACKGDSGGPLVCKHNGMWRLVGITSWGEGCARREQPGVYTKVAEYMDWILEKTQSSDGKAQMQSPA
Sequence (P03952 20-390 partner): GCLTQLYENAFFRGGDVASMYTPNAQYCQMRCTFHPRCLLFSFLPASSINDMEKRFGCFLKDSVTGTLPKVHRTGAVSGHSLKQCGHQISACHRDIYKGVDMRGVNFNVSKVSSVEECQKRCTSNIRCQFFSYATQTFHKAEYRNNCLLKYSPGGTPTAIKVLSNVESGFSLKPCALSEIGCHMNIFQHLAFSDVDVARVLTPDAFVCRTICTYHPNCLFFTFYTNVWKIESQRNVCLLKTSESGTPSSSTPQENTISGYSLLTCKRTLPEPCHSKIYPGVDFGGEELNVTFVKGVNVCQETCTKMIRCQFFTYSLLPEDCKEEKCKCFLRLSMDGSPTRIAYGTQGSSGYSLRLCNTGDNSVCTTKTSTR
Experiment: Kallikrein Assay
Format: biochemical
Conditions: purified Human plasma Kallikrein 0.5 nM; substrate Acetyl-K-P-R-AFC; 50 mM HEPES pH 7.4; Ki from IC50 by Cheng Prusoff
readout-name: Ki

- COC(=O)Nc1ccc2c(c1)NC(=O)CCCC[C@H](c1ccc(-c3cc(Cl)ccc3-n3cc(C#N)cn3)c[n+]1[O-])c1cccc-2c1 (single isomer, unassigned): 6.27 nM
- CC(C)(C)OCCOC(=O)Nc1ccc2c(c1)NC(=O)CCCC[C@H](c1ccc(-c3c(F)ccc(Cl)c3F)c[n+]1[O-])c1cccc-2c1: 0.44 nM
- COC(=O)Nc1ccc2c(c1)NC(=O)CC[C@H](C)C[C@H](c1ccc(-c3c(F)cccc3OC(F)F)c[n+]1[O-])c1nc-2c(C)[nH]1 (single isomer, unassigned): 114 nM
- COC(=O)Nc1ccc2c(c1)NC(=O)CCCCC(c1ccc(-c3cc(Cl)ccc3-n3cc(C(=O)O)nn3)cn1)c1cccc-2c1 (single isomer, unassigned): 26 nM
- COC(=O)Nc1ccc2c(c1)NC(=O)CCCC[C@H](c1ccc(-c3cc(F)ccc3OC(F)(F)F)c[n+]1[O-])c1nc-2c(C)[nH]1 (single isomer, unassigned): 5.94 nM

====

Target: purified Human plasma Kallikrein (Homo sapiens (Human))
Assay: Kallikrein Assay
Type: biochemical
Conditions: purified Human plasma Kallikrein 0.5 nM; substrate Acetyl-K-P-R-AFC; 50 mM HEPES pH 7.4; Ki from IC50 by Cheng Prusoff
Recorded log10(Ki) by entry
readout-name: log10(Ki) (log10 of the value in nM)

- COC(=O)Nc1ccc2c(c1)NC(=O)CCCC[C@H](c1ccc(-c3c(F)ccc(Cl)c3F)c[n+]1[O-])c1cc-2ncn1 (single isomer, unassigned) [Example 75]: 0.93
- CCc1[nH]c2nc1-c1ccc(NC(=O)OC)cc1NC(=O)CCCC[C@@H]2c1ccc(-c2c(F)cccc2OC(F)F)c[n+]1[O-] (single isomer, unassigned) [Example 127]: 0.39
- COC(=O)Nc1ccc2c(c1)NC(=O)C(C)CCCC(c1ccc(-c3c(F)ccc(Cl)c3F)cn1)c1cc-2ccn1 (single isomer, unassigned) [Example 95-a]: 1.07
- CCc1[nH]c2nc1-c1ccc(NC(=O)OC)cc1NC(=O)CCCCC2c1ccc(-c2c(F)ccc(Cl)c2F)c[n+]1[O-] (single isomer, unassigned) [Example 112-a]: -0.59
- O=C1CCCC[C@H](c2ccc(-c3c(F)ccc(Cl)c3F)c[n+]2[O-])c2cccc(c2)-c2ccc(Nc3cccnc3)cc2N1 [Example 47]: 0.70

====

Target: purified human Factor XIa (Homo sapiens (Human), UniProt P03951)
Sequence (P03951 388-625): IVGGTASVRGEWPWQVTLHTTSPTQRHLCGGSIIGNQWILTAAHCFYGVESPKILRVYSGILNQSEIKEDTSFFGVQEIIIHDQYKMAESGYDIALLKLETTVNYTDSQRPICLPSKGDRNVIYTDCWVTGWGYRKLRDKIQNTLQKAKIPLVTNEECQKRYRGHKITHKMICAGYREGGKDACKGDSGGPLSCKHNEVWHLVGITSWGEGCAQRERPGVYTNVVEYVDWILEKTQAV
Sequence (P03951 19-387 partner): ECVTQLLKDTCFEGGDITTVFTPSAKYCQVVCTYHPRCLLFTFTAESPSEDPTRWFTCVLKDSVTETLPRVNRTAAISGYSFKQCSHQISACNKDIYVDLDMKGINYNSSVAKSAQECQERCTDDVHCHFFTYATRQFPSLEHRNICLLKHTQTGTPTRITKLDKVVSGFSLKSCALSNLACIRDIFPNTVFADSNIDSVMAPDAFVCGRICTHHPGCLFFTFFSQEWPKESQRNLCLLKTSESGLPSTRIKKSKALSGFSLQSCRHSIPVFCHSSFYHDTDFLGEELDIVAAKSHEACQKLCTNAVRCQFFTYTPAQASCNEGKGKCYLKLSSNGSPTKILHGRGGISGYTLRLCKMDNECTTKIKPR
pKi: −log10 of the molar value.
readout-name: pKi

• CCOC(=O)Nc1ccc2c(c1)NC(=O)CCCCC(c1ccc(-c3c(F)ccc(Cl)c3F)c[n+]1[O-])c1nc-2c[nH]1 (single isomer, unassigned) = 9.64
• O=C1CCCC[C@H](c2ccc(-c3c(F)ccc(Cl)c3F)c[n+]2[O-])c2cccc(c2)-c2ccc(Nc3cccnc3)cc2N1 = 8.72
• O=C1CCCC[C@H](c2ccc(-c3cc(Cl)ccc3-n3cnnn3)c[n+]2[O-])c2cccc(c2)-c2cc(F)ccc2N1 = 10.05
• COC(=O)Nc1ccc2c(c1)NC(=O)CCCCC(c1ccc(-c3c(F)cc(I)c(Cl)c3F)c[n+]1[O-])c1nc-2c[nH]1 (single isomer, unassigned) = 8.77
• COC(=O)Nc1ccc2c(c1)NC(=O)CCCC[C@H](c1ccc(-c3c(F)cccc3F)c[n+]1[O-])c1nc-2c(C)[nH]1 (single isomer, unassigned) = 9.27
• COC(=O)Nc1ccc2c(c1)NC(=O)CCCCC(c1ccc(-c3cc(Cl)ccc3-n3cnnn3)c[n+]1[O-])c1cccc-2c1 (single isomer, unassigned) = 10.00
